Attribute: pIC50
- Test system: PC-3
- protocolSummary: Antiproliferative activity against human PC3 cells after 72 hrs by MTT assay
- Type: functional, cell-based
- conditionSet: PC-3, 72 h
Quick note: pIC50 means taking -log10 of the concentration in moles per liter.

Below are worked cases with known answers.
>>> observedmeasurement("CC(C)c1ccc(/C=C/C(=O)c2ccc(OCC(=O)N[C@H]3CCOC3=O)cc2)cc1")
5.33
>>> observedmeasurement("CC(=O)c1ccc(OCCSC(=S)N[C@H]2CCOC2=O)cc1")
4.33

As a next step, examine the compound that follows.
[in] GET /values?readout=pIC50&item= O=C(COc1ccc(C(=O)/C=C/c2ccc(F)c(F)c2)cc1)N[C@H]1CCOC1=O
[out] 4.66
